Cited source: patent US20090130692A1

biological target: T1, bovine pancreatic trypsin (bovine, UniProt P00760 24-246); experiment: enzyme inhibition; residual trypsin activity fitted to tight-binding equation (Morrison); apparent Ki (Kiapp)
T1 construct: also called bovine trypsin (Serva)
T1 sequence (P00760 24-246): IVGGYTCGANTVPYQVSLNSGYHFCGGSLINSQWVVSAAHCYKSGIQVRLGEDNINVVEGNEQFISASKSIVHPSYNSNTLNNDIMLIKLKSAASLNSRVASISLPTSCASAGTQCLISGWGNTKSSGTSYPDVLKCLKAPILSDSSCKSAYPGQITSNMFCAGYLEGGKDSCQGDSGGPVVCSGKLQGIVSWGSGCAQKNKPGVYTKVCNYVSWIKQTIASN

binder	Ki
SE-BMG-0 (other, Bacillus amyloliquefaciens, mature; Tested as barnase′ fusion protein (column Barnase-Fusion marked x); also called SE-MG (Bar); fusion protein consisting of barnase′ and the cystine knot microprotein SE-MG) AQVINTFDGVADYLQTYHKLPDNYITKSEAQALGWVASKGNLADVAPGKSIGGDIFSNREGKLPGKSGRTWREADINYTSGFRNSDRILYSSDWLIYKTTDAYQTFTKIRSSSMGVCPKILKKCRRDSDCLAGCVCGPNGFCGS	0.2 nM
MCoEeTI-QRT-7 (other, Bacillus amyloliquefaciens, mature; Tested as barnase′ fusion protein; also called SE-MG-TR-030 (Bar)) AQVINTFDGVADYLQTYHKLPDNYITKSEAQALGWVASKGNLADVAPGKSIGGDIFSNREGKLPGKSGRTWREADINYTSGFRNSDRILYSSDWLIYKTTDAYQTFTKIRSSSMGVCPRNRQRCRRDSDCLAGCVCTNNKFCGS	1 nM
MCoEeTI-T-1 (other, Bacillus amyloliquefaciens, mature; Tested as barnase′ fusion protein; also called SE-MG-TR-080 (Bar)) AQVINTFDGVADYLQTYHKLPDNYITKSEAQALGWVASKGNLADVAPGKSIGGDIFSNREGKLPGKSGRTWREADINYTSGFRNSDRILYSSDWLIYKTTDAYQTFTKIRSSSMGVCPKILKKCRRDSDCLAGCVCTNNKFCGS	0.1 nM
MCoEeTI-ARD-2 (other, Bacillus amyloliquefaciens, mature; Tested as barnase′ fusion protein; also called SE-MG-TR-050 (Bar)) AQVINTFDGVADYLQTYHKLPDNYITKSEAQALGWVASKGNLADVAPGKSIGGDIFSNREGKLPGKSGRTWREADINYTSGFRNSDRILYSSDWLIYKTTDAYQTFTKIRSSSMGVCPKILKACARDSDCLAGCVCGPNGFCGS	0.2 nM
